systemName: d-enCas12a-Ultra (Acidaminococcus sp., UniProt U2UMQ6 1-1307, E174R;S542R;K548R;M537R;F870L;D908A;E993A;D1235A)
experimentSummary: Spec-seq (native PAGE EMSA with sequencing of bound and unbound); 25 mM Tris-HCl pH 7.4, 150 mM KCl, 5 mM MgCl2, 10% glycerol, 1 mM DTT, 40 ng/uL salmon sperm DNA; 400 nM Cas12a, 480 nM crRNA, 50 nM library, 37 C 1 h; native PAGE at room temperature; high values mean tight binding;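 also: relative affinity from the bound to unbound sequence frequency ratio in Spec-seq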
protocolConditions: protein: recombinant
valueKind: binding signal
Note to self: number, then unit, no commentary.

>>> observed("TTCG (dsDNA) DNA 1: GCTATCTAGTGCTCAGTACGCACTGTTCGAGGAAACTTCTGGCAGGACCAGGTCATGAGATCGGAAGAGCACACGTCTGAACTCCAGTCA DNA 2: TGACTGGAGTTCAGACGTGTGCTCTTCCGATCTCATGACCTGGTCCTGCCAGAAGTTTCCTCGAACAGTGCGTACTGAGCACTAGATAGC RNA: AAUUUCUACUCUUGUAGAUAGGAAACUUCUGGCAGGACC")
"-0.323 lnKA"
>>> observed("GCTC (dsDNA) DNA 1: GCTATCTAGTGCTCAGTACGCACTGGCTCAGGAAACTTCTGGCAGGACCAGGTCATGAGATCGGAAGAGCACACGTCTGAACTCCAGTCA DNA 2: TGACTGGAGTTCAGACGTGTGCTCTTCCGATCTCATGACCTGGTCCTGCCAGAAGTTTCCTGAGCCAGTGCGTACTGAGCACTAGATAGC RNA: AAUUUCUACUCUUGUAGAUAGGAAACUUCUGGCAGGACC")
"-1.57 lnKA"
>>> observed("TTAG (dsDNA) DNA 1: GCTATCTAGTGCTCAGTACGCACTGTTAGAGGAAACTTCTGGCAGGACCAGGTCATGAGATCGGAAGAGCACACGTCTGAACTCCAGTCA DNA 2: TGACTGGAGTTCAGACGTGTGCTCTTCCGATCTCATGACCTGGTCCTGCCAGAAGTTTCCTCTAACAGTGCGTACTGAGCACTAGATAGC RNA: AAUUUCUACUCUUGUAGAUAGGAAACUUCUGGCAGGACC")
"-1.65 lnKA"
>>> observed("CTAT (dsDNA) DNA 1: GCTATCTAGTGCTCAGTACGCACTGCTATAGGAAACTTCTGGCAGGACCAGGTCATGAGATCGGAAGAGCACACGTCTGAACTCCAGTCA DNA 2: TGACTGGAGTTCAGACGTGTGCTCTTCCGATCTCATGACCTGGTCCTGCCAGAAGTTTCCTATAGCAGTGCGTACTGAGCACTAGATAGC RNA: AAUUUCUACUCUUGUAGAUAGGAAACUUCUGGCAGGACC")
"-3.31 lnKA"

Okay, now this binder:
Fill in binding signal for record TCTG (dsDNA) DNA 1: GCTATCTAGTGCTCAGTACGCACTGTCTGAGGAAACTTCTGGCAGGACCAGGTCATGAGATCGGAAGAGCACACGTCTGAACTCCAGTCA DNA 2: TGACTGGAGTTCAGACGTGTGCTCTTCCGATCTCATGACCTGGTCCTGCCAGAAGTTTCCTCAGACAGTGCGTACTGAGCACTAGATAGC RNA: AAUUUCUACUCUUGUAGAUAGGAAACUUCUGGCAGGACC
-1.79 lnKA

Values from paper PMC8222333
